biological target: human CD33 I105A (human, UniProt P20138 18-364); assay: flow cytometry on HEK293-T, alanine scan
Sequence (P20138 18-364 I105A limits assumed): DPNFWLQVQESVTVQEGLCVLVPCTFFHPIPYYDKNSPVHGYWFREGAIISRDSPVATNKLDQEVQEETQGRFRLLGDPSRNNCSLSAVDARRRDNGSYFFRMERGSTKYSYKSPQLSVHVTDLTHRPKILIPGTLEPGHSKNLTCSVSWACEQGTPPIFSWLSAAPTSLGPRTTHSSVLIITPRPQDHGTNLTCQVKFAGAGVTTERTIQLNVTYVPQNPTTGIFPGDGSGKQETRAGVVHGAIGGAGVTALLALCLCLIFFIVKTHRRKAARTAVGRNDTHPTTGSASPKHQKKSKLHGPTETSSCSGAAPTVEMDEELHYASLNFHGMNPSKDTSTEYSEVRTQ
measured_quantity: Mean % WT Binding (% WT binding)
Report only the number, with the unit % WT binding understood.

Example cases with answers are listed next.
| binder | Mean % WT Binding [% WT binding] |
| --- | --- |
| Refmab #4 (antibody, V domains shown, The alanine scan used IgG or Fab) VH: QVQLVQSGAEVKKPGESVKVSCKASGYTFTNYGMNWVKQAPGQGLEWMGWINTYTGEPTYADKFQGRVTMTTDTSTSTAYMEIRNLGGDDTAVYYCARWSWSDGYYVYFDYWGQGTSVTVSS VL: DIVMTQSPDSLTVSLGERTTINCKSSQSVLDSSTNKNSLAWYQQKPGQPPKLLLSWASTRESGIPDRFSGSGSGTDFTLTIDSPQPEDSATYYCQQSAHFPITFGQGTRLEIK | 21.6 |
| Refmab #2 (antibody, V domains shown, The alanine scan used IgG or Fab) VH: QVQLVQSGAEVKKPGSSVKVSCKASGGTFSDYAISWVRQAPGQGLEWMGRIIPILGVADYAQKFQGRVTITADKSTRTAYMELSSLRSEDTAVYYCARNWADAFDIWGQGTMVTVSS VL: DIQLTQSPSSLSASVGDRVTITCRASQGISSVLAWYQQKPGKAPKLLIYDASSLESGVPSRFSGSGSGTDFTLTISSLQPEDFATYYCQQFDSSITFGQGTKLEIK | 43.7 |

Would you mind telling me what Mean % WT Binding value was observed for Refmab #3 (antibody, V domains shown, The alanine scan used IgG or Fab) VH: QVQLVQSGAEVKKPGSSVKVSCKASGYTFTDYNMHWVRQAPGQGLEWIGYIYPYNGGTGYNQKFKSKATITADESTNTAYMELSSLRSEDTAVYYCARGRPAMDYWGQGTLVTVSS VL: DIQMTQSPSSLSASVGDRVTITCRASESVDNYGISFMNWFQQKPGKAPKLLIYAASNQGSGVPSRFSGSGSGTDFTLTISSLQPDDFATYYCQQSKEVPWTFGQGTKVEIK ?
64.7

Now the binder Refmab #1 (antibody, V domains shown, The alanine scan used IgG or Fab; also called hP67.6) VH: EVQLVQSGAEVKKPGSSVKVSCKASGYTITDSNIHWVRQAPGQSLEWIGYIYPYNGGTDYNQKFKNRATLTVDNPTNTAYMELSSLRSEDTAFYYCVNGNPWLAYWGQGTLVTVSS VL: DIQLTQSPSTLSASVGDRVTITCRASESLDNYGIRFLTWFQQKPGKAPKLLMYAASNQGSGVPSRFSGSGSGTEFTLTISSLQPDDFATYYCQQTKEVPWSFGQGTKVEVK
31.5
